Recorded binding signal (PBM E-score (-0.5 to 0.5)) for the following sequences
subjectOfTest: dmd-5 (F10C1.5) (Caenorhabditis elegans) (UniProt Q19291)
Sequence (Q19291 1-125): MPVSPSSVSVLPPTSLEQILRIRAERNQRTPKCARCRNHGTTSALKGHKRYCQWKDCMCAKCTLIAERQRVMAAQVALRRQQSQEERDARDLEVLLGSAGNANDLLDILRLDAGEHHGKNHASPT

> print(dat)
                            sequencecontent                             subjectoftest  assayvalue
1  AATGTATC (double strand) [8-mer AATGTATC]  dmd-5 (F10C1.5) (Caenorhabditis elegans) (UniProt Q19291)       0.485
2  ATTGTTAC (double strand) [8-mer ATTGTTAC]  dmd-5 (F10C1.5) (Caenorhabditis elegans) (UniProt Q19291)       0.476
3  ACTGTAAC (double strand) [8-mer ACTGTAAC]  dmd-5 (F10C1.5) (Caenorhabditis elegans) (UniProt Q19291)        0.49

Please look at the following sequence next.
Tested system dmd-5 (F10C1.5) (Caenorhabditis elegans) (UniProt Q19291); binding signal (PBM E-score (-0.5 to 0.5)) recorded for TGTAACAA (double strand) [8-mer TGTAACAA] was 0.484

###

Recorded binding signal (PBM E-score (-0.5 to 0.5)) by entry
subjectOfTest: T27F2.4 (T27F2.4) (Caenorhabditis elegans) (UniProt Q22835)
Sequence: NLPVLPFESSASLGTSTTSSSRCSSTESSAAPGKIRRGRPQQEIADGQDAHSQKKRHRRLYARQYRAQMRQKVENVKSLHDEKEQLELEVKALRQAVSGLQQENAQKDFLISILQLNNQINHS
The answer should be written as a number, with no unit following it.

> print(dat)
                            sequencecontent  assayvalue
1  TTCGTAAA (double strand) [8-mer TTCGTAAA]       0.458
2  TACGAATA (double strand) [8-mer TACGAATA]       0.452
3  ATTCGTAA (double strand) [8-mer ATTCGTAA]       0.489
4  TTACGAAA (double strand) [8-mer TTACGAAA]       0.463
5  ATTACGAA (double strand) [8-mer ATTACGAA]       0.485

As a next step, examine the sequence that follows.
Query AATTCGTA (double strand) [8-mer AATTCGTA] yields binding signal (PBM E-score (-0.5 to 0.5)) of 0.47

###

subjectOfTest: daf-12 (F11A1.3) (Caenorhabditis elegans)
Sequence: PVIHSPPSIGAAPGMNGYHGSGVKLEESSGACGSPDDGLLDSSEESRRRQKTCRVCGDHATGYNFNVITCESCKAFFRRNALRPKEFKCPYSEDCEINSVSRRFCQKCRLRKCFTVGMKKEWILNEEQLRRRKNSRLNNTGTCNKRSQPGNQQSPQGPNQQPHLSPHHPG
Below, each entry is listed alongside its reported binding signal (PBM E-score (-0.5 to 0.5)).
Give a plain numeric answer without units written out.

> print(dat)
                            sequencecontent  assayvalue
1  AAAGGTCA (double strand) [8-mer AAAGGTCA]       0.491

For record AAAGTGCA (double strand) [8-mer AAAGTGCA] the listed binding signal (PBM E-score (-0.5 to 0.5)) is 0.498

Summary for this sequence, TAAGTACA (double strand) [8-mer TAAGTACA] : binding signal (PBM E-score (-0.5 to 0.5)) is 0.492

The recorded binding signal (PBM E-score (-0.5 to 0.5)) for AAGTACAA (double strand) [8-mer AAGTACAA] is 0.493

The sequence listed as GAAGTGCA (double strand) [8-mer GAAGTGCA] shows binding signal (PBM E-score (-0.5 to 0.5)) equal to 0.491

So for AAGTGCAA (double strand) [8-mer AAGTGCAA] , the logged binding signal (PBM E-score (-0.5 to 0.5)) turned out to be 0.496

Value source: paper PMC4434323
